Each recorded value in this set is attributed to patent US20140135310A1.

Reported inhibition at 1 µM values follow for various molecules
molecular target: M3 muscarinic receptors (Homo sapiens); construct: expressed in transfected cells; host or cells: CHO cells; test: Radioligand binding assay, muscarinic M3 receptors; conditions: test compound 1×10^−6 M
Sequence (P20309 whole entry): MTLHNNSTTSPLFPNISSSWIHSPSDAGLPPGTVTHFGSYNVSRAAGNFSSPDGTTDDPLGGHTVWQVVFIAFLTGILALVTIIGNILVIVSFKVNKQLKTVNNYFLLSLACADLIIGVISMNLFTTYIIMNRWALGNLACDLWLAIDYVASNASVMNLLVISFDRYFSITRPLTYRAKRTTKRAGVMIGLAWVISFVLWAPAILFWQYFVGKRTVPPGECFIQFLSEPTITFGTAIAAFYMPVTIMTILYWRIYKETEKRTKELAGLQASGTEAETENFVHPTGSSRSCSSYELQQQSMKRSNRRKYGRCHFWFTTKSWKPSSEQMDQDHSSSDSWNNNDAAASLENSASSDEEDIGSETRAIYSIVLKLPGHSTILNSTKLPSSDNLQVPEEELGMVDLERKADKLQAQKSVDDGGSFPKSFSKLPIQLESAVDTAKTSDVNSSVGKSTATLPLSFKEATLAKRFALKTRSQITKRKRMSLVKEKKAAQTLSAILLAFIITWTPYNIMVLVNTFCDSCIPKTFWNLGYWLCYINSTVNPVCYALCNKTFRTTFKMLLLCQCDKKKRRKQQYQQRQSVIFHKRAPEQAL
Provide only the numeric value, understood in %.

Cc1c(S(=O)(=O)NCC2CCN(CCCc3noc4cc(F)ccc34)C2)sc2ccc(Cl)cc12 (stereo not shown) | 26
O=S(=O)(NC1CCN(CCCc2noc3cc(F)ccc23)C1)c1cccc2ccccc12 (stereo not shown) | -7
O=S(=O)(NC1CCN(CCCc2noc3cc(F)ccc23)CC1)c1cccc2ccccc12 | 12
O=S(=O)(NCC1CN(CCCc2noc3cc(F)ccc23)C1)c1ccc2scnc2c1 | 10
O=S(=O)(NCC1CCN(CCOc2cccc3c2OCCO3)C1)c1ccc(Br)cc1 (stereo not shown) | 11

Request: Please give the measured inhibition at 1 µM for this molecule: COc1ccc2cc(S(=O)(=O)N[C@@H]3CCN(CCCc4noc5cc(F)ccc45)C3)ccc2c1
Result: 15
